test: in vitro; conditions: human, hela cells, % viability
parameter-measured: viability at 28.5 h, 10 µM (%)

{"compound": "CCCC/C=C/c1cnc(Nc2ccc(N3CCOCC3)cc2)c2nccn12", "assay-value": 91.3}
{"compound": "O=C(COc1cccc(Cl)c1)NCCc1ccc(S(=O)(=O)NC(=O)NC2CCCCC2)cc1", "assay-value": 93.4}
{"compound": "O=C(c1c[nH]c(=O)n(-c2ccc(F)cc2)c1=O)N1CCc2ccccc21", "assay-value": 101}
{"compound": "COCc1nc(NCCCn2c(C)cccc2=O)cc([C@H]2C[C@H](N)C2)n1", "assay-value": 103}
{"compound": "c1ccc(-c2cc(-c3ccccc3)n3nc(Cc4nc5nc(-c6ccccc6)cc(-c6ccccc6)n5n4)nc3n2)cc1", "assay-value": 93.1}
{"compound": "CN1CCCC1c1cccnc1 (stereo not shown)", "assay-value": 94}
{"compound": "CS(=O)(=O)N(CC(=O)N1CCN(Cc2ccc3c(c2)OCO3)CC1)c1cccc(F)c1", "assay-value": 102}
{"compound": "CNC(=O)c1ccc(-n2ccnc2)c(-n2cccc2)c1", "assay-value": 80.8}
{"compound": "Cc1ccc([N+](=O)[O-])cc1NC(=O)CSc1nnc(-c2ccco2)o1", "assay-value": 117}
{"compound": "O=C(O)c1ccccc1C(=O)N1CCN(Cc2ccc3c(c2)OCO3)CC1", "assay-value": 97.9}
{"compound": "CCOC(=O)CN(Cc1ccccc1)Cc1cccc(OC)c1", "assay-value": 96.4}
{"compound": "O=C(CSc1nnc2ccccn12)Nc1ccccc1", "assay-value": 109}
{"compound": "COc1ccc(N2Cc3ccccc3C2=O)cc1OC", "assay-value": 95.5}
{"compound": "Nn1c(SCc2ccc(C(=O)O)cc2)nnc1-c1ccccn1", "assay-value": 90.8}
{"compound": "O=C(NCCN1CCOCC1)c1ccc2nccnc2c1", "assay-value": 108}
{"compound": "CN(C(=O)OC(C)(C)C)C1CN(C(c2ccccc2)c2ccccc2)C1", "assay-value": 89.8}
{"compound": "CN1CCC[C@H]1C(=O)Nc1nc2c(s1)C(=O)CC(C)(C)C2", "assay-value": 98.8}
{"compound": "CN(CCc1cnn(C)c1)C(=O)NCCCN1CCCC1=O", "assay-value": 91.1}
{"compound": "COc1ccc(Cn2nc(NS(=O)(=O)c3ccc(-c4ccon4)s3)c3ccccc32)cc1", "assay-value": 92.9}
{"compound": "O=[N+]([O-])c1ccc(N/N=C/c2cnn(-c3ccccc3)c2)cc1", "assay-value": 94}
{"compound": "COc1ccc(C)cc1NC(=O)CSc1nc(C)cc(C(F)(F)F)n1", "assay-value": 96}
{"compound": "NC(=O)c1ccsc1NC(=O)C(F)(F)F", "assay-value": 96.4}
{"compound": "O=C(O)c1cccc(NS(=O)(=O)c2ccc(Cl)c(C(=O)Nc3ccc(Br)cc3)c2)c1", "assay-value": 87}
{"compound": "Cc1nonc1CC(=O)NC1(c2ccc(F)cc2)CCCC1", "assay-value": 93.2}
{"compound": "Cc1nnc([C@H]2CCN(Cc3cccs3)C2)o1", "assay-value": 103}
{"compound": "O=C1C[C@@H]2CCN(C(=O)COc3ccccc3)C[C@@H]2CCN1Cc1cccnc1", "assay-value": 82}
{"compound": "CN(C)CC(C)(C)CNC(=O)c1cc(-c2ccc(Cl)cc2)on1", "assay-value": 101}
{"compound": "COCCn1c(SCc2ccc([N+](=O)[O-])cc2)nc2c([nH]c3ccccc32)c1=O", "assay-value": 90}
{"compound": "Cc1ccc2nc(-c3ccncc3)cc(C(=O)Nc3ccc(C(F)(F)F)cc3)c2c1", "assay-value": 91.6}
{"compound": "O=c1[nH]c(=O)c2cc(S(=O)(=O)N3CCC(c4ccccc4)C3)ccc2[nH]1 (stereo not shown)", "assay-value": 105}
{"compound": "O=C(CN1C(=O)c2ccccc2C1=O)NCC1COc2ccccc2O1 (stereo not shown)", "assay-value": 96.8}
{"compound": "O=C(O)/C=C\\C(=O)NCC(=O)O", "assay-value": 93.5}
{"compound": "COc1ccc(Cl)cc1CN(C)C(=O)c1cnn2cc(CCO)cnc12", "assay-value": 97.7}
{"compound": "Cc1nc(NC(=O)Cc2c(C)nn(CC(C)C)c2C)sc1-c1n[nH]c(=S)n1C", "assay-value": 88.6}

The measured values listed here are drawn from paper PMC12040169.
